All figures here come from PubChem BioAssay AID1918995.

Tested on: 324938-238-R-J1-PDC complex spheroid growth, % test/control
method: Anticancer human tumor 324938-238-R-J1-PDC patient-derived bladder carcinoma cell line growth inhibition [AhR]
condition-notes: second compound 10 µM; first compound 1 µM; stronger effect = lower value
Documented viability, T/C across a set of compounds
assay-readout: viability, T/C

{"compound": "Nc1ccn(C2OC(CO)C(O)C2(F)F)c(=O)n1 (stereo unspecified) + CC(CO)NC(=O)c1cc(-c2ccc(Cl)cc2)nn(-c2cnn(C)c2)c1=O", "assay-readout": "viability, T/C", "measured-value": "21.4%"}
{"compound": "CC1(C)CCC(CN2CCN(c3ccc(C(=O)NS(=O)(=O)c4ccc(NCC5CCOCC5)c([N+](=O)[O-])c4)c(Oc4cnc5[nH]ccc5c4)c3)CC2)=C(c2ccc(Cl)cc2)C1 + Cc1ccccc1N=Nc1ccc(NC(=O)c2ccnn2C)c(C)c1", "assay-readout": "viability, T/C", "measured-value": "67.9%"}
{"compound": "O=C(c1cc(Cc2n[nH]c(=O)c3ccccc23)ccc1F)N1CCN(C(=O)C2CC2)CC1 + CC(CO)NC(=O)c1cc(-c2ccc(Cl)cc2)nn(-c2cnn(C)c2)c1=O", "assay-readout": "viability, T/C", "measured-value": "50.5%"}
{"compound": "CC1(C)CCC(CN2CCN(c3ccc(C(=O)NS(=O)(=O)c4ccc(NCC5CCOCC5)c([N+](=O)[O-])c4)c(Oc4cnc5[nH]ccc5c4)c3)CC2)=C(c2ccc(Cl)cc2)C1 + CC(CO)NC(=O)c1cc(-c2ccc(Cl)cc2)nn(-c2cnn(C)c2)c1=O", "assay-readout": "viability, T/C", "measured-value": "59.4%"}
{"compound": "COc1ccc([C@@H](O)c2cc(-c3ncnc4cc(N5CCOCC5)ccc34)c(F)cc2Cl)nn1 + CC(CO)NC(=O)c1cc(-c2ccc(Cl)cc2)nn(-c2cnn(C)c2)c1=O", "assay-readout": "viability, T/C", "measured-value": "56.1%"}
{"compound": "Nc1ncn(C2CC(O)C(CO)O2)c(=O)n1 (stereo unspecified) + Cc1cncc(-c2nc(NCCc3c[nH]c4ccccc34)c3ncn(C(C)C)c3n2)c1", "assay-readout": "viability, T/C", "measured-value": "7.74%"}
{"compound": "COc1cc(C2c3cc4c(cc3C(OC3OC5COC(C)OC5C(O)C3O)C3COC(=O)C23)OCO4)cc(OC)c1O (stereo unspecified) + CC(CO)NC(=O)c1cc(-c2ccc(Cl)cc2)nn(-c2cnn(C)c2)c1=O", "assay-readout": "viability, T/C", "measured-value": "36.5%"}
{"compound": "COc1cccc2c1C(=O)c1c(O)c3c(c(O)c1C2=O)CC(O)(C(=O)CO)CC3OC1CC(N)C(O)C(C)O1 (stereo unspecified) + Cc1ccccc1N=Nc1ccc(NC(=O)c2ccnn2C)c(C)c1", "assay-readout": "viability, T/C", "measured-value": "5.73%"}
{"compound": "O=C(C=Cc1cccc(S(=O)(=O)Nc2ccccc2)c1)NO + CC(CO)NC(=O)c1cc(-c2ccc(Cl)cc2)nn(-c2cnn(C)c2)c1=O", "assay-readout": "viability, T/C", "measured-value": "71.6%"}
{"compound": "O=C(c1cc(Cc2n[nH]c(=O)c3ccccc23)ccc1F)N1CCN(C(=O)C2CC2)CC1 + Cc1ccccc1N=Nc1ccc(NC(=O)c2ccnn2C)c(C)c1", "assay-readout": "viability, T/C", "measured-value": "85.1%"}
{"compound": "CC1(C)CCC(CN2CCN(c3ccc(C(=O)NS(=O)(=O)c4ccc(NCC5CCOCC5)c([N+](=O)[O-])c4)c(Oc4cnc5[nH]ccc5c4)c3)CC2)=C(c2ccc(Cl)cc2)C1 + Cc1cncc(-c2nc(NCCc3c[nH]c4ccccc34)c3ncn(C(C)C)c3n2)c1", "assay-readout": "viability, T/C", "measured-value": "7.88%"}

====

System: 324938-238-R-J1-PDC complex spheroid growth, % test/control
method: Anticancer human tumor 324938-238-R-J1-PDC cell line growth inhibition [AhR];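 also: spheroids exposed to agents for seven days before viability read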
condition-notes: curve of first compound; second compound 0.316 µM
pIC50: −log10 of the molar value.

{"compound": "CC1COCCN1c1cc(-c2ccnn2C)c2ccnc(-c3ccn[nH]3)c2n1 (stereo not drawn) + CC(CO)NC(=O)c1cc(-c2ccc(Cl)cc2)nn(-c2cnn(C)c2)c1=O", "pIC50": 7.19}
{"compound": "Nc1ncn(C2CC(O)C(CO)S2)c(=O)n1 (stereo not drawn) + Cc1ccccc1N=Nc1ccc(NC(=O)c2ccnn2C)c(C)c1", "pIC50": "< 6.52"}
{"compound": "CCN(c1cc(-c2ccc(CN3CCOCC3)cc2)cc(C(=O)NCc2c(C)cc(C)[nH]c2=O)c1C)C1CCOCC1 + CC(CO)NC(=O)c1cc(-c2ccc(Cl)cc2)nn(-c2cnn(C)c2)c1=O", "pIC50": "< 5.52"}
{"compound": "Cn1ncnc1C1c2n[nH]c(=O)c3cc(F)cc(c23)NC1c1ccc(F)cc1 (stereo not drawn) + Cc1cncc(-c2nc(NCCc3c[nH]c4ccccc34)c3ncn(C(C)C)c3n2)c1", "pIC50": "< 7.00"}
{"compound": "COc1cccc2c1C(=O)c1c(O)c3c(c(O)c1C2=O)CC(O)(C(=O)CO)CC3OC1CC(N)C(O)C(C)O1 (stereo not drawn) + Cc1cncc(-c2nc(NCCc3c[nH]c4ccccc34)c3ncn(C(C)C)c3n2)c1", "pIC50": 6.44}
{"compound": "Nc1ccccc1NC(=O)c1ccc(CNC(=O)OCc2cccnc2)cc1 + CC(CO)NC(=O)c1cc(-c2ccc(Cl)cc2)nn(-c2cnn(C)c2)c1=O", "pIC50": 5.60}
{"compound": "Nc1ncn(C2CC(O)C(CO)O2)c(=O)n1 (stereo not drawn) + Cc1cncc(-c2nc(NCCc3c[nH]c4ccccc34)c3ncn(C(C)C)c3n2)c1", "pIC50": "< 6.00"}
{"compound": "Nc1ncn(C2CC(O)C(CO)O2)c(=O)n1 (stereo not drawn) + Cc1ccccc1N=Nc1ccc(NC(=O)c2ccnn2C)c(C)c1", "pIC50": "< 6.00"}
{"compound": "CC[C@@]1(O)C(=O)OCc2c1cc1n(c2=O)Cc2cc3c(CN(C)C)c(O)ccc3nc2-1 + Cc1ccccc1N=Nc1ccc(NC(=O)c2ccnn2C)c(C)c1", "pIC50": 7.68}
{"compound": "COc1ccc([C@@H](O)c2cc(-c3ncnc4cc(N5CCOCC5)ccc34)c(F)cc2Cl)nn1 + Cc1cncc(-c2nc(NCCc3c[nH]c4ccccc34)c3ncn(C(C)C)c3n2)c1", "pIC50": 5.13}
{"compound": "CC1COCCN1c1cc(-c2ccnn2C)c2ccnc(-c3ccn[nH]3)c2n1 (stereo not drawn) + Cc1cncc(-c2nc(NCCc3c[nH]c4ccccc34)c3ncn(C(C)C)c3n2)c1", "pIC50": "< 6.00"}
{"compound": "CC1COCCN1c1cc(C2(S(C)(=N)=O)CC2)nc(-c2ccnc3[nH]ccc23)n1 (stereo not drawn) + Cc1cncc(-c2nc(NCCc3c[nH]c4ccccc34)c3ncn(C(C)C)c3n2)c1", "pIC50": "< 5.00"}
{"compound": "O=C(C=Cc1cccc(S(=O)(=O)Nc2ccccc2)c1)NO + CC(CO)NC(=O)c1cc(-c2ccc(Cl)cc2)nn(-c2cnn(C)c2)c1=O", "pIC50": 5.46}
{"compound": "CC1(C)CCC(CN2CCN(c3ccc(C(=O)NS(=O)(=O)c4ccc(NCC5CCOCC5)c([N+](=O)[O-])c4)c(Oc4cnc5[nH]ccc5c4)c3)CC2)=C(c2ccc(Cl)cc2)C1 + Cc1cncc(-c2nc(NCCc3c[nH]c4ccccc34)c3ncn(C(C)C)c3n2)c1", "pIC50": "< 5.00"}
{"compound": "CCc1c2c(nc3ccc(O)cc13)-c1cc3c(c(=O)n1C2)COC(=O)[C@]3(O)CC + Cc1ccccc1N=Nc1ccc(NC(=O)c2ccnn2C)c(C)c1", "pIC50": 8.61}
{"compound": "Nc1ccn(C2OC(CO)C(O)C2(F)F)c(=O)n1 (stereo not drawn) + CC(CO)NC(=O)c1cc(-c2ccc(Cl)cc2)nn(-c2cnn(C)c2)c1=O", "pIC50": "> 7.50"}
{"compound": "CC[C@@]1(O)C(=O)OCc2c1cc1n(c2=O)Cc2cc3c(CN(C)C)c(O)ccc3nc2-1 + CC(CO)NC(=O)c1cc(-c2ccc(Cl)cc2)nn(-c2cnn(C)c2)c1=O", "pIC50": 7.69}
{"compound": "CC(C)c1c(-c2ccccc2)nc2c(C#N)c[nH]n2c1=O + CC(CO)NC(=O)c1cc(-c2ccc(Cl)cc2)nn(-c2cnn(C)c2)c1=O", "pIC50": "< 5.00"}
{"compound": "CCc1c2c(nc3ccc(O)cc13)-c1cc3c(c(=O)n1C2)COC(=O)[C@]3(O)CC + Cc1cncc(-c2nc(NCCc3c[nH]c4ccccc34)c3ncn(C(C)C)c3n2)c1", "pIC50": "< 6.52"}
{"compound": "O=C(c1cc(Cc2n[nH]c(=O)c3ccccc23)ccc1F)N1CCN(C(=O)C2CC2)CC1 + Cc1ccccc1N=Nc1ccc(NC(=O)c2ccnn2C)c(C)c1", "pIC50": "< 5.00"}
{"compound": "COc1ccc([C@@H](O)c2cc(-c3ncnc4cc(N5CCOCC5)ccc34)c(F)cc2Cl)nn1 + CC(CO)NC(=O)c1cc(-c2ccc(Cl)cc2)nn(-c2cnn(C)c2)c1=O", "pIC50": "< 5.00"}
{"compound": "COc1cccc2c1C(=O)c1c(O)c3c(c(O)c1C2=O)CC(O)(C(=O)CO)CC3OC1CC(N)C(O)C(C)O1 (stereo not drawn) + CC(CO)NC(=O)c1cc(-c2ccc(Cl)cc2)nn(-c2cnn(C)c2)c1=O", "pIC50": "> 7.50"}
{"compound": "CCc1c2c(nc3ccc(O)cc13)-c1cc3c(c(=O)n1C2)COC(=O)[C@]3(O)CC + CC(CO)NC(=O)c1cc(-c2ccc(Cl)cc2)nn(-c2cnn(C)c2)c1=O", "pIC50": "> 9.02"}
